# MEASUREMENT DESCRIPTION: MIC of test compounds against various organisms
# Assay type: cell-based
# CONDITION SUMMARY: versus all these organisms (panel of 10 strains); read-out: MIC
Counter-ions that a name gives are not always drawn.
MIC values by entry

See these solved cases before continuing.
- MOLECULE: "COc1ccc2nccc(NC(=O)C3=CCC(NCc4cnc5c(c4)NC(=O)CO5)CC3)c2n1 (racemic) [Example 155, oxalate]"
  MEASURE: "MIC"
  EXPERIMENTAL VALUE: "≤ 16 µg/mL"
- MOLECULE: "COc1ccc2nccc(NC(=O)[C@H]3CC[C@H](NCc4ccc5c(n4)OCCO5)CC3)c2n1 [Example 18, oxalate salt]"
  MEASURE: "MIC"
  EXPERIMENTAL VALUE: "≤ 64 µg/mL"
- MOLECULE: "COc1ccc2nccc(C(O)C[C@H]3CC[C@H](NCc4ccc5c(c4)NC(=O)CS5)CC3)c2c1 (stereo partly shown) [Example 21, oxalate salt]"
  MEASURE: "MIC"
  EXPERIMENTAL VALUE: "≤ 4 µg/mL"
- MOLECULE: "COc1ccc2nccc(NC(=O)[C@]3(O)CC[C@@H](NCc4cnc5c(c4)NC(=O)CS5)CC3)c2n1 [Example 303, Dihydrochloride]"
  MEASURE: "MIC"
  EXPERIMENTAL VALUE: "≤ 4 µg/mL"
- MOLECULE: "COc1ccc2nccc(NC(=O)[C@H]3CC[C@H](NCc4cc5c(cc4N)OCO5)CC3)c2n1 [Example 24, dioxalate salt]"
  MEASURE: "MIC"
  EXPERIMENTAL VALUE: "≤ 16 µg/mL"

[in] Can you share its MIC? I mean this molecule: COc1ccc2nccc(NC(=O)[C@]3(O)CC[C@@H](NCc4ccc5c(n4)NC(=O)CO5)CC3)c2n1 [Example 305, Dihydrochloride]
[out] ≤ 4 µg/mL

[in] Try COc1ccc2nccc(NC(=O)[C@H]3CC[C@H](NCc4ccc5c(c4)NC(=O)CS5)CC3)c2n1 [Example 4, fumarate salt] next.
[out] ≤ 4 µg/mL
